// data source = IntAct's records for PubMed 20561531

B1: PRKC apoptosis WT1 regulator protein (Homo sapiens), Q96IZ0 (parent)
chain: MATGGYRTSSGLGGSTTDFLEEWKAKREKMRAKQNPPGPAPPGGGSSDAAGKPPAGALGTPAAAAANELNNNLPGGAPAAPAVPGPGGVNCAVGSAMLTRAAPGPRRSEDEPPAASASAAPPPQRDEEEPDGVPEKGKSSGPSARKGKGQIEKRKLREKRRSTGVVNIPAAECLDEYEDDEAGQKERKREDAITQQNTIQNEAVNLLDPGSSYLLQEPPRTVSGRYKSTTSVSEEDVSSRYSRTDRSGFPRYNRDANVSGTLVSSSTLEKKIEDLEKEVVRERQENLRLVRLMQDKEEMIGKLKEEIDLLNRDLDDIEDENEQLKQENKTLLKVVGQLTR

- Variants of: B1
- MEASUREMENT CONDITIONS: with spsb4_mouse Spsb4, Q8R5B6
- Sequence (Q8R5B6 whole entry): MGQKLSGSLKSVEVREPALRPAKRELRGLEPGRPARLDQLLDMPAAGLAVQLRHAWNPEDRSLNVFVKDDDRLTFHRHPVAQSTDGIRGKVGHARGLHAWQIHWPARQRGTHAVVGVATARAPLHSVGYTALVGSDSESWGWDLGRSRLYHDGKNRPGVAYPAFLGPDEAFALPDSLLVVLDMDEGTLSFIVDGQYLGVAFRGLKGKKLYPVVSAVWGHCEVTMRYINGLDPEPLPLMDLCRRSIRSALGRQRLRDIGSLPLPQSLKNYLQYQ
PROPERTY LABEL: effect of a mutation on the interaction

Guide cases for effect of a mutation on the interaction, answers given:
# effect of a mutation on the interaction of E68D;L69I = increasing interaction

# effect of a mutation on the interaction of N70A = disrupting interaction

# effect of a mutation on the interaction of N71A = disrupting interaction

# effect of a mutation on the interaction of E68D = increasing interaction

Field: next variant
# effect of a mutation on the interaction of L69I = increasing interaction
